system: fibrin- and LPS-induced microglia activation; experiment: cells; assay type: cell-based, rat; settings: Table 1; screen at 10 μM
Structures can show the parent of a compound that is named as a salt. Where a SMILES comes first, the peptide text is derived from it. Bridges are numbered along the chain shown (N, C = ends). [ ]: non-standard residue; d: D form. The star is where a group is joined. Ileψ(thiazoline)Cys = CC[C@H](C)[C@H](N)C1=N[C@H](C(=O)*)CS1; dOrn = NCCC[C@@H](N)C(=O)O

>  <COMPOUND>
CC[C@@]1(O)C(=O)OCc2c1cc1n(c2=O)Cc2cc3c([N+](=O)[O-])cccc3nc2-1 [Rubitecan, reference compound]

>  <Quadrant (FIG. 5b)>
Q3

$$$$
>  <COMPOUND>
CCC(=O)OCC(=O)[C@@]1(OC(=O)CC)[C@H](C)C[C@H]2[C@H]3[C@H]([C@@H](O)C[C@@]21C)[C@@]1(C)C=CC(=O)C=C1C[C@H]3Cl [Alclometazone dipropionate, reference compound]

>  <Quadrant (FIG. 5b)>
Q2

$$$$
>  <COMPOUND>
COC(=O)Nc1nc2ccc(C(=O)c3ccccc3)cc2[nH]1 [Mebendazole, reference compound]

>  <Quadrant (FIG. 5b)>
Q2

$$$$
>  <COMPOUND>
CC(C)C(=O)c1c(C(C)C)nn2ccccc12 [Ibudilast, reference compound]

>  <Quadrant (FIG. 5b)>
Q2

$$$$
>  <COMPOUND>
N[C@H](C(=O)O)[C@@H]1CC(Cl)=NO1 [Acivicin]

>  <Quadrant (FIG. 5b)>
Q2

$$$$
>  <COMPOUND>
CC(CN(C)C)CN1c2ccccc2CCc2ccccc21 (centres unmarked) [Trimipramine maleate, reference compound]

>  <Quadrant (FIG. 5b)>
Q2

$$$$
>  <COMPOUND>
O=P(O)(O)C(O)(Cn1ccnc1)P(=O)(O)O [Zoledronic acid, reference compound]

>  <Quadrant (FIG. 5b)>
Q3

$$$$
>  <COMPOUND>
O=c1[nH]c2ccccc2n1C1CCN(CCCC(c2ccc(F)cc2)c2ccc(F)cc2)CC1 [Pimozide, reference compound]

>  <Quadrant (FIG. 5b)>
Q3

$$$$
>  <COMPOUND>
CC[C@@H](C(=O)[C@@H](C)[C@@H](O)[C@H](C)[C@@H]1O[C@@H]([C@@H](CC)C(=O)O)CC[C@@H]1C)[C@H]1O[C@]2(C=C[C@@H](O)[C@]3(CC[C@@](C)([C@H]4CC[C@](O)(CC)[C@H](C)O4)O3)O2)[C@H](C)C[C@@H]1C [Salinomycin, sodium, reference compound]

>  <Quadrant (FIG. 5b)>
Q2

$$$$
>  <COMPOUND>
CC[C@H](C)[C@H](N)C1=N[C@H](C(=O)N[C@@H](CC(C)C)C(=O)N[C@H](CCC(=O)O)C(=O)N[C@H](C(=O)N[C@H]2CCCCNC(=O)[C@H](CC(N)=O)NC(=O)[C@@H](CC(=O)O)NC(=O)[C@H](Cc3cnc[nH]3)NC(=O)[C@@H](Cc3ccccc3)NC(=O)[C@H]([C@@H](C)CC)NC(=O)[C@@H](CCCN)NC2=O)[C@@H](C)CC)CS1 [Bacitracin, reference compound] ({Ileψ(thiazoline)Cys}-L[dE]IK[dOrn]I[dF]H[dD]N; lactam 4-C)

>  <Quadrant (FIG. 5b)>
Q3

$$$$
>  <COMPOUND>
CCC(Cc1c(I)cc(I)c(N)c1I)C(=O)O (centres unmarked) [Iopanic acid, reference compound]

>  <Quadrant (FIG. 5b)>
Q3

$$$$

====

system: primary rat microglia; assay: Cell toxicity (dead cells, size <150 μm2) in coated fibrin (cFib) assay; conditions: primary microglia HTS, fibrin stimulation; decreased size (<150 μm^2) as marker of toxicity;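 also: share of dead cells sized under 150 µm2 at 10 µM in fibrin-stimulated microglia HTS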
Counter-ions that a name gives are not always drawn.
The reader will find reported Fibrin % cell toxicity values listed item by item below.
REPORTED ENDPOINT: Fibrin % cell toxicity (%)

>  <MOLECULE>
Cc1cccc(C)c1N=C1NCCCS1 [Xylazine hydrochloride, reference compound]

>  <RESULT VALUE>
1

$$$$
>  <MOLECULE>
O=C(NC(=O)c1c(F)cccc1F)Nc1cc(Cl)c(OC(F)(F)C(F)C(F)(F)F)cc1Cl (centres unmarked)

>  <RESULT VALUE>
1

$$$$
>  <MOLECULE>
CCn1cc(C(=O)O)c(=O)c2ccc(C)nc21

>  <RESULT VALUE>
1

$$$$
>  <MOLECULE>
CCN1CCCC1CNC(=O)c1cc(S(=O)(=O)CC)c(N)cc1OC (centres unmarked) [Amisulpride, reference compound]

>  <RESULT VALUE>
2

$$$$
>  <MOLECULE>
OC[C@H]1O[C@@H](n2cnc3c(O)ncnc32)[C@H](O)[C@@H]1O

>  <RESULT VALUE>
7

$$$$
>  <MOLECULE>
CC(=O)OCC(=O)[C@@]1(O)CC[C@H]2[C@@H]3CCC4=CC(=O)CC[C@]4(C)[C@@]3(F)[C@@H](O)C[C@@]21C [Fludrocortisone acetate, reference compound]

>  <RESULT VALUE>
2

$$$$
>  <MOLECULE>
CN1C[C@H](CNC(=O)OCc2ccccc2)C[C@@H]2c3cccc4c3c(cn4C)C[C@H]21

>  <RESULT VALUE>
1

$$$$
>  <MOLECULE>
NCCC(O)(P(=O)(O)O)P(=O)(O)O [Pamidronate]

>  <RESULT VALUE>
1

$$$$

====

test system: LPS-induced microglia activation; experiment: Image-based assay of LPS-induced microglia activation (HTS and dose response); format: cell-based, rat; details: read-out: LPS IC50 (uM) (Suppl. Table 7)
REPORTED ENDPOINT: IC50 (µM)

>  <COMPOUND>
CN1CCc2cccc3c2[C@H]1Cc1ccc(O)c(O)c1-3.Cl [R(−)-Apomorphine hydrochloride, reference compound]

>  <REPORTED ENDPOINT>
IC50

>  <U>
µM

>  <RESULT VALUE>
14

$$$$

====

The reader will find reported inhibition at 10 µM values listed item by item below.
tested on: fibrin- and LPS-induced microglia activation; assay: cells; format: cell-based, rat; conditions: Rattus norvegicus; hit classification in microglia HTS; read-out: Cherry-picked Hit (Suppl. Table 7)
Structures can show the parent of a compound that is named as a salt.

>  <MOLECULE>
Nc1ccc(S(=O)(=O)Nc2cnc3ccccc3n2)cc1 [Sulfaquinoxaline sodium, reference compound]

>  <inhibition at 10 µM>
> 50%

$$$$
>  <MOLECULE>
CNC(C)(C)Cc1ccccc1 [Mephentermine sulfate, reference compound]

>  <inhibition at 10 µM>
> 50%

$$$$
>  <MOLECULE>
CC1(C)O[C@@H]2C[C@H]3[C@@H]4C[C@H](F)C5=CC(=O)C=C[C@]5(C)[C@@]4(F)[C@@H](O)C[C@]3(C)[C@]2(C(=O)CO)O1 [Fluocinolone acetonide, reference compound]

>  <inhibition at 10 µM>
> 50%

$$$$

====

system: fibrin-induced microglia activation; assay: Image-based assay of fibrin-induced microglia activation (HTS and dose response); format: cell-based, rat
Structures can show the parent of a compound that is named as a salt.
REPORTED ENDPOINT: Fibrin Selectivity

>  <COMPOUND>
CN(C)[C@@H]1C(O)=C(C(N)=O)C(=O)[C@@]2(O)C(O)=C3C(=O)c4c(O)ccc(Cl)c4[C@@H](O)[C@H]3C[C@@H]12 [Demeclocycline hydrochloride, reference compound]

>  <REPORTED ENDPOINT>
Fibrin Selectivity

>  <RESULT VALUE>
2

$$$$
>  <COMPOUND>
CC(=O)OCC(=O)[C@@]12N=C(C)O[C@@H]1C[C@H]1[C@@H]3CCC4=CC(=O)C=C[C@]4(C)[C@H]3[C@@H](O)C[C@@]12C [Deflazacort, reference compound]

>  <REPORTED ENDPOINT>
Fibrin Selectivity

>  <RESULT VALUE>
42

$$$$
>  <COMPOUND>
CC(=O)OCC(=O)[C@H]1CC[C@H]2[C@@H]3CCC4=CC(=O)CC[C@]4(C)[C@H]3CC[C@]12C [Desoxycorticosterone acetate, reference compound]

>  <REPORTED ENDPOINT>
Fibrin Selectivity

>  <RESULT VALUE>
10

$$$$

====

tested on: fibrin- and LPS-induced microglia activation; assay: cells; type: cell-based, rat; conditions: HTS of 1907 compounds, quadrant by fibrin and LPS inhibition
Where a name gives a salt, the structure may show the parent alone.
REPORTED ENDPOINT: Quadrant (FIG. 5b)

>  <COMPOUND>
CN(C)c1cc(NC(=O)CNC(C)(C)C)c(O)c2c1C[C@H]1C[C@H]3[C@H](N(C)C)C(O)=C(C(N)=O)C(=O)[C@@]3(O)C(O)=C1C2=O

>  <RESULT VALUE>
Q4

$$$$
>  <COMPOUND>
CC(=O)O[C@]1(C(C)=O)CC[C@H]2[C@@H]3C=C(Cl)C4=CC(=O)CC[C@]4(C)[C@H]3CC[C@@]21C [Chlormadinone acetate, reference compound]

>  <RESULT VALUE>
Q3

$$$$
>  <COMPOUND>
C[C@H](CCC(=O)O)[C@H]1CC[C@H]2[C@@H]3[C@@H](O)C[C@@H]4C[C@H](O)CC[C@]4(C)[C@H]3CC[C@]12C

>  <RESULT VALUE>
Q4

$$$$
>  <COMPOUND>
O=C(O)c1cc(/N=N/c2ccc(S(=O)(=O)Nc3ccccn3)cc2)ccc1O

>  <RESULT VALUE>
Q4

$$$$
>  <COMPOUND>
O=C1Cc2cc(CCN3CCN(c4nsc5ccccc45)CC3)c(Cl)cc2N1 [Ziprasidone Mesylate, Ziprasidone]

>  <RESULT VALUE>
Q4

$$$$
>  <COMPOUND>
CS(=O)(=O)c1ccc([C@@H](O)[C@@H](CO)NC(=O)C(Cl)Cl)cc1

>  <RESULT VALUE>
Q4

$$$$
>  <COMPOUND>
CC(C)[C@H](N)C(=O)OCC(CO)OCn1cnc2c(=O)nc(N)[nH]c21 (some centres unmarked)

>  <RESULT VALUE>
Q4

$$$$
>  <COMPOUND>
Cc1ccc(C(=O)Nc2ccc(S(=O)(=O)O)c3cc(S(=O)(=O)O)cc(S(=O)(=O)O)c23)cc1NC(=O)c1cccc(NC(=O)Nc2cccc(C(=O)Nc3cc(C(=O)Nc4ccc(S(=O)(=O)O)c5cc(S(=O)(=O)O)cc(S(=O)(=O)O)c45)ccc3C)c2)c1

>  <RESULT VALUE>
Q4

$$$$
>  <COMPOUND>
CCN(CC)CCNc1ccc(CO)c2sc3ccccc3c(=O)c12 [Hycanthone, reference compound]

>  <RESULT VALUE>
Q2

$$$$
>  <COMPOUND>
CCCOc1ccc2[nH]c(NC(=O)OC)nc2c1 [Oxybendazole, reference compound]

>  <RESULT VALUE>
Q3

$$$$
>  <COMPOUND>
CC(CCc1ccc(O)cc1)NCC(O)c1ccc(O)cc1 (centres unmarked) [Ractopamine hydrochloride, reference compound]

>  <RESULT VALUE>
Q3

$$$$
>  <COMPOUND>
COc1cc(NS(=O)(=O)c2ccc(N)cc2)nc(OC)n1

>  <RESULT VALUE>
Q4

$$$$
>  <COMPOUND>
Cc1cc(C)nc(NS(=O)(=O)c2ccc(N)cc2)n1

>  <RESULT VALUE>
Q4

$$$$
>  <COMPOUND>
Cc1c(Cl)cccc1Nc1ccccc1C(=O)O

>  <RESULT VALUE>
Q4

$$$$
